system: human APJ receptor (Homo sapiens, UniProt P35414)
Construct: expressed in transfected cells
protocol.details: Intracellular cAMP accumulation assay (APJ hcAMP, HTRF)
Format: cell-based
condition.parameters: Table 1; HEK293 cells stably expressing human APJ receptor; inhibition of forskolin-mediated cAMP production; read-out: APJ hcAMP EC50
pEC50: −log10 of the molar value.
pEC50 reference

Solved entries (count: 2):
COC[C@@H](NC(=O)c1ccc(-c2cc(Cl)ccc2-c2nc3ccccc3n2C)c(C(=O)O)c1)c1ccccc1 [Example 138] :: 6.30 to 7.00
O=C(NC(c1ccccc1)C1CC1)c1ccc(-c2c(Cl)cccc2-c2nc3ccccc3[nH]2)c(C(=O)O)c1 (single isomer, unassigned) [Example 220] :: > 8.00

Report pEC50 for CCC[C@@H](NC(=O)c1ccc(-c2c(Cl)cccc2-c2nc3cc(F)cc(F)c3[nH]2)c(C(=O)O)c1)c1ccccc1 (atropisomer, axis not shown) [Example 90] please. > 8.00

----------
pEC50 reference
system: human APJ receptor (Homo sapiens)
Construct: expressed in transfected cells
Sequence (P35414 1-380): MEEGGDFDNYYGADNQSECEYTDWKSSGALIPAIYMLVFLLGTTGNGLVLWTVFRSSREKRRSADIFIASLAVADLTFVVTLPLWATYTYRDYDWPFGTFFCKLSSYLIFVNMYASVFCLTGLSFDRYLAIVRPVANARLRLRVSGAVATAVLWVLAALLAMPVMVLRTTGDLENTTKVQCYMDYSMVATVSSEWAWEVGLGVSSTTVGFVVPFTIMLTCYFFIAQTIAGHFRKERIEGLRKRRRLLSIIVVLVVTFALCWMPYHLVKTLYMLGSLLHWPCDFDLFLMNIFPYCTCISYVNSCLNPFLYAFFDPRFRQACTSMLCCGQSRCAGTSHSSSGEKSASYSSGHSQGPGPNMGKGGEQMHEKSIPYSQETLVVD
protocol.details: Intracellular cAMP accumulation assay (APJ hcAMP, HTRF)
Assay type: cell-based
condition.parameters: Table 1; HEK293 cells stably expressing human APJ receptor; inhibition of forskolin-mediated cAMP production; read-out: APJ hcAMP EC50
pEC50: −log10 of the molar value.

CCC[C@H](NC(=O)c1ccc(-c2c(Cl)cccc2-c2nc3cc(OC)c(F)cc3[nH]2)c(C(=O)O)c1)c1ccccc1C(F)(F)F (single isomer, unassigned) :: > 8.00
CCC[C@@H](NC(=O)c1ccc(-c2c(C)cccc2-c2nc3c(O)cccc3[nH]2)c(C(=O)O)c1)c1ccccc1 :: > 8.00
CCC[C@@H](NC(=O)c1ccc(-c2cc(Cl)ccc2-c2nc3cc4ccccc4cc3[nH]2)c(C(=O)O)c1)c1ccccc1 :: 7.00 to 8.00
COC[C@@H](NC(=O)c1ccc(-c2cc(Cl)ccc2-c2nc3cc(C(C)(C)C)ccc3[nH]2)c(C(=O)O)c1)c1ccccc1 :: > 8.00
CCC[C@@H](NC(=O)c1ccc(-c2cc(C(F)(F)F)ccc2-c2nc3ccccc3[nH]2)c(C(=O)O)c1)c1ccccc1 :: > 8.00
CCC[C@@H](NC(=O)c1ccc(-c2c(Cl)cccc2-c2nc3cc(O)c(F)cc3[nH]2)c(C(=O)O)c1)c1ccccc1 (atropisomer, axis not shown) :: > 8.00
CC[C@H](NC(=O)c1ccc(-c2c(Cl)cccc2-c2nc3ccccc3[nH]2)c(C(=O)O)c1)c1ccc(Cl)cc1OC :: > 8.00
CCCC(NC(=O)c1ccc(-c2c(Cl)cccc2-c2nc3ccccc3[nH]2)c(C(=O)O)c1)c1c(C)cc(C)cc1C (single isomer, unassigned) :: > 8.00
CCC[C@@H](NC(=O)c1ccc(-c2cc(Cl)ccc2-c2nc3cccc(C)c3[nH]2)c(C(=O)O)c1)c1ccccc1 :: 7.00 to 8.00
CCCC(NC(=O)c1ccc(-c2c(Cl)cccc2-c2nc3cc(OC)c(F)cc3[nH]2)c(C(=O)O)c1)C1CCCC1 (single isomer, unassigned) :: > 8.00

Report pEC50 for CCOCC(NC(=O)c1ccc(-c2c(Cl)cccc2-c2nc3ccccc3[nH]2)c(C(=O)O)c1)c1ccccc1 (stereo not drawn) please. > 8.00

Report pEC50 for CCC[C@@H](NC(=O)c1ccc(-c2c(Cl)cccc2-c2nc3cc(OC(C)=O)ccc3[nH]2)c(C(=O)O)c1)c1ccccc1 (atropisomer, axis not shown) please. > 8.00

Report pEC50 for CCC[C@H](NC(=O)c1ccc(-c2c(Cl)cccc2-c2nc3ccccc3[nH]2)c(C(=O)O)c1)c1cccnc1 [Example 190] please. 7.00 to 8.00

Report pEC50 for CCC[C@@H](NC(=O)c1ccc(-c2cc(C)ccc2-c2nc3ccccc3[nH]2)c(C(=O)O)c1)c1ccccc1 please. > 8.00

Report pEC50 for CCC[C@H](NC(=O)c1ccc(-c2c(Cl)cccc2-c2nc3cc(OC)c(F)cc3[nH]2)c(C(=O)O)c1)c1ccc(Cl)cc1 (single isomer, unassigned) please. > 8.00

Report pEC50 for CCC(NC(=O)c1ccc(-c2cc(Cl)ccc2-c2nc3ccccc3[nH]2)c(C(=O)O)c1)c1ccncc1 (racemic) please. 7.00 to 8.00

Report pEC50 for CCCC(NC(=O)c1ccc(-c2c(Cl)cccc2-c2nc3ccccc3[nH]2)c(C(=O)O)c1)c1ccncc1 (single isomer, unassigned) [Example 192] please. 7.00 to 8.00

Report pEC50 for CCC[C@H](NC(=O)c1ccc(-c2c(Cl)cccc2-c2nc3ccccc3[nH]2)c(C(=O)O)c1)c1cccnc1 [Example 193] please. 7.00 to 8.00
